# reported growth at 10 µM; entries follow
# Test system: HOP-92
# Test description: Anticancer activity against human HOP92 cells assessed as cell growth at 10 uM after 48 hrs by sulforhodamine B assay relative to control
# Type: functional
# Reported conditions: HOP-92, 48 h, read-out: Activity
// return numeric value only (unit: %, not printed)

Compound	Tested on	Measurement unit	growth at 10 µM
C=C1CC[C@@H]2[C@](C)(COC(C)=O)[C@H](OC(C)=O)CC[C@@]2(C)[C@H]1CC(Nc1ccc(S(=O)(=O)Nc2nccc(C)n2)cc1)C1=CCOC1=O (stereo not given in full)	HOP-92	%	71.6
C=C1CC[C@@H]2[C@](C)(COC(C)=O)[C@H](OC(C)=O)CC[C@@]2(C)[C@H]1CC(Nc1ccc(S(=O)(=O)Nc2ncccn2)cc1)C1=CCOC1=O (stereo not given in full)	HOP-92	%	56.3

Give growth at 10 µM only, for C=C1CC[C@@H]2[C@](C)(COC(C)=O)[C@H](OC(C)=O)CC[C@@]2(C)[C@H]1CC(Nc1ccc(S(=O)(=O)Nc2nccs2)cc1)C1=CCOC1=O (stereo not given in full) , using HOP-92 data.
54

Write growth at 10 µM of C=C1CC[C@@H]2[C@](C)(COC(C)=O)[C@H](OC(C)=O)CC[C@@]2(C)[C@H]1CC(Nc1ccc(S(=O)(=O)Nc2nc(C)cc(C)n2)cc1)C1=CCOC1=O (stereo not given in full) ; system used: HOP-92
90.1

Write growth at 10 µM of C=C1CC[C@@H]2[C@](C)(COC(C)=O)[C@H](OC(C)=O)CC[C@@]2(C)[C@H]1CC(Nc1ccc(S(=O)(=O)Nc2ccc(Cl)nn2)cc1)C1=CCOC1=O (stereo not given in full) ; system used: HOP-92
69.8

###

# System: SF-268
# Test description: Growth inhibition of human SF268 cells incubated for 48 hrs by sulforhodamine B assay
# Format: functional
# Reported conditions: SF-268, 48 h
Quantity measured: GI50 (nM)
Value expressed in nM; do not type the unit.

Compound	Quantity measured	Reported result
C=C1CC[C@@H]2[C@](C)(COC(C)=O)[C@H](OC(C)=O)CC[C@@]2(C)[C@H]1CC(Nc1ccc(S(=O)(=O)Nc2nccc(C)n2)cc1)C1=CCOC1=O (stereo not given in full)	GI50	6190
C=C1CC[C@@H]2[C@](C)(COC(C)=O)[C@H](OC(C)=O)CC[C@@]2(C)[C@H]1CC(Nc1ccc(S(=O)(=O)Nc2nccs2)cc1)C1=CCOC1=O (stereo not given in full)	GI50	11300
C=C1CC[C@@H]2[C@](C)(COC(C)=O)[C@H](OC(C)=O)CC[C@@]2(C)[C@H]1CC(Nc1ccc(S(=O)(=O)Nc2ncccn2)cc1)C1=CCOC1=O (stereo not given in full)	GI50	1930
C=C1CC[C@@H]2[C@](C)(COC(C)=O)[C@H](OC(C)=O)CC[C@@]2(C)[C@H]1CC(Nc1ccc(S(=O)(=O)Nc2cc(C)on2)cc1)C1=CCOC1=O (stereo not given in full)	GI50	2350

Specify reported GI50 for the compound shown: C=C1CC[C@@H]2[C@](C)(COC(C)=O)[C@H](OC(C)=O)CC[C@@]2(C)[C@H]1CC(Nc1ccc(S(=O)(=O)Nc2ccc(Cl)nn2)cc1)C1=CCOC1=O (stereo not given in full)
1800
